The following molecules are shown together with reported boiling point values.
// units = °C; emit number, no label

Challenge: What value of measured boiling point is listed for C[C@@H](O)C(=O)c1ccccc1 ?
Response given: 251

Challenge: Please give the result for SCCCCCCCCS too.
Response given: 270

Challenge: Another: C=CCCCC(=O)O
Response given: 203

Challenge: Please answer likewise for CNc1cccc2ccccc12
Response given: 294

Challenge: Record: O=[N+]([O-])c1cccs1
Response given: 224

Now take the following molecule into account.
Challenge: So what's the measured boiling point for this one? CC(C)C(C)C
Response given: 57.9

----------
Documented log10 Koc (L/kg) across a set of molecules
Reply with the value as a number alone.

Take a look at these entries with their results.
Challenge: Need log10 Koc (L/kg) of COc1cc(Cl)c(OC)cc1Cl , thanks.
Response given: 3.1

Challenge: // query: CC1CCCCN1CCCOC(=O)c1ccc(Cl)c(Cl)c1 (stereo not given)
Response given: 3.7

Challenge: What do you get for CC(=O)OCCc1ccccc1 ?
Response given: 1.89

Next:
Challenge: // lookup log10 Koc (L/kg) for CN(C)C(=O)Nc1cc(C(C)(C)C)on1
Response given: 2.47

Challenge: And the next one, CN(C)C(=S)SSC(=S)N(C)C ?
Response given: 2.83

Challenge: Queued: COP(=S)(OC)Oc1ccc(SC)c(C)c1
Response given: 3.18

Challenge: Next: Nc1c(Cl)c(Cl)c(Cl)c(Cl)c1Cl
Response given: 4.62

Challenge: Input Nc1cnn(-c2ccccc2)c(=O)c1Cl
Response given: 2.08

Challenge: Entry to check: Oc1cc(O)c2c(c1)O[C@H](c1ccc(O)c(O)c1)[C@@H](O)C2
Response given: 2.03

Challenge: For NC(=O)Nc1ccc(Cl)c(Cl)c1 then?
Response given: 2.53

Challenge: Same read-out for NC(=O)Nc1cccc(F)c1 ?
Response given: 1.77

Challenge: Now this one: Nc1ccc2cc3ccccc3cc2c1
Response given: 4.45

Challenge: What do you have for ClCCOCOCCCl ?
Response given: 1.79

Challenge: # iterate: Clc1cc(Cl)cc(C2(CC(Cl)(Cl)Cl)CO2)c1 (stereo not given)
Response given: 3.75

Challenge: Same question for CC(=O)Nc1ccc(Br)cc1 please.
Response given: 1.95

----------
boiling point listing for selected molecules.
Number in °C, nothing else.

Consider the reported boiling point for these molecules:
Challenge: Reported boiling point for O=[N+]([O-])c1cccc2ccccc12 : what is it?
Response given: 304

Challenge: Cool, now C[Si]1(C)O[Si](C)(C)O[Si](C)(C)O[Si](C)(C)O[Si](C)(C)O1
Response given: 210

Challenge: ClCC1CC1 , same question.
Response given: 88

Challenge: Same question, CC1(C)CC(O)CC(C)(CN)C1 (stereo not given) this time
Response given: 265

Challenge: Also, CCOC(=O)c1ccccc1[N+](=O)[O-] please.
Response given: 275

Challenge: Also check O=C(C(F)(F)Cl)C(F)(F)Cl
Response given: 44.5

Challenge: Would you kindly repeat that for CCCCOCC(C)C ?
Response given: 151

Challenge: Okay, and CC(C)[C@@H](C)C(=O)O ?
Response given: 192

Challenge: And for FC(F)(F)F ?
Response given: -128

Challenge: Cool, now BrCCc1ccccc1
Response given: 219

More entries:
Challenge: So what does the record say about boiling point for Cc1c(C)c(C)c(O)c(C)c1C ?
Response given: 267

Challenge: # repeat for CC(C)CC(C)O (stereo not given)
Response given: 132

Challenge: Now consider CC(=O)OCC#N .
Response given: 200

Challenge: Please give the result for C=C=CCCl too.
Response given: 88

Challenge: One more molecule: COc1c(Cl)cc(Cl)cc1Cl
Response given: 241

Challenge: Next entry: CCCCOC(C)=O
Response given: 126

Challenge: Same question for C=C(C)COC please.
Response given: 68

Challenge: Now this one: CCC(=O)OCc1ccccc1
Response given: 220
